Documented log P across a set of compounds
Assay: Measurement of log P values by HPLC on reversed phase columns (EEC directive 79/831 Annex V.A8; methods [a] pH 2.3, [b] pH 2.7, [c] pH 7.8)
Format: physicochemical
Conditions: method [b]: LC-MS at pH 2.7, 0.1% formic acid in water / acetonitrile

compound	observedProperty	result
COC(c1ccccc1Cl)C(C)NC(=O)c1ccccc1C (stereo not drawn)	log P	3.26^[b]
CCOC(c1ccc(Cl)cc1Cl)C(C)NC(=O)c1ccccc1[N+](=O)[O-] (stereo not drawn)	log P	3.83^[b]
COC(c1ccc(Cl)cc1Cl)C(C)N(C(=O)c1nccnc1C(F)(F)F)C1CC1 (stereo not drawn)	log P	4.69^[b]
COC(c1ccccc1Cl)C(C)NC(=O)c1ccccc1Cl (stereo not drawn)	log P	3.74^[b]
COC(c1ccc(Cl)cc1)C(C)NC(=O)c1ccccc1C(F)(F)F (stereo not drawn)	log P	3.45^[b]

Next item in the queue.
Exercise: Data request, read-out log P, for CCOC(c1ccc(Cl)cc1Cl)C(C)NC(=O)c1ccccc1I (stereo not drawn)
Solution: 4.51^[b]
